# Tested on: 786-0
# procedureSummary: inhibition of the growth of renal cancer(786-0) cell line
# Assay type: functional
# testSettings: Homo sapiens
Readings of GI50 for the listed compounds
valueKind: GI50 (nM)

- COc1cc(N(C)c2ccc3nc(N)nc(N)c3n2)cc(OC)c1OC: 20
- Nc1nc(N)c2nc(Nc3ccccc3)ccc2n1: 890
- CN(c1ccccc1)c1ccc2nc(N)nc(N)c2n1: 220

----------
# System: NCI/ADR-RES
# procedureSummary: Inhibition of the growth of breast cancer (MCF7/ADR-RES) cell line at 0.01 uM
# Format: functional
# testSettings: Homo sapiens
valueKind: inhibition at 0.01 µM (%)

- COc1ccc(N(C)c2ccc3nc(N)nc(N)c3n2)cc1OC: 84
- CN(c1ccc2ccccc2c1)c1ccc2nc(N)nc(N)c2n1: 100
- COc1ccc(N(C)c2ccc3nc(N)nc(N)c3n2)cc1: 100
- COc1ccc(OC)c(N(C)c2ccc3nc(N)nc(N)c3n2)c1: 82
- CN(c1ccccc1)c1ccc2nc(N)nc(N)c2n1: 83

----------
# Tested on: DU-145
# procedureSummary: inhibition of the growth of prostate cancer(DU-145) cell line
# Assay type: functional
# testSettings: Homo sapiens
valueKind: GI50 (µM)

* COc1cc(N(C)c2ccc3nc(N)nc(N)c3n2)cc(OC)c1OC | 0.22
* Nc1nc(N)c2nc(Nc3ccccc3)ccc2n1 | 4.99
* CN(c1ccccc1)c1ccc2nc(N)nc(N)c2n1 | 0.12

----------
# Test system: RPMI-8226
# procedureSummary: inhibition of the growth of leukemia (RPMI-8226) cell line
# Assay type: functional
# testSettings: Homo sapiens
valueKind: GI50

• CN(c1ccc2ccccc2c1)c1ccc2nc(N)nc(N)c2n1 = < 10 nM
• COc1cc(N(C)c2ccc3nc(N)nc(N)c3n2)cc(OC)c1OC = < 10 nM
• CN(c1ccccc1)c1ccc2nc(N)nc(N)c2n1 = < 10 nM
• Nc1nc(N)c2nc(Nc3ccccc3)ccc2n1 = 670 nM

----------
Readings of inhibition at 0.01 µM for the listed compounds
# System: A549
# procedureSummary: Inhibition of the growth of non-small-cell lung cancer (A549/ATCC) cell line at 0.01 uM
# Assay type: functional
# testSettings: Homo sapiens
valueKind: inhibition at 0.01 µM (%)

* COc1ccc(OC)c(N(C)c2ccc3nc(N)nc(N)c3n2)c1 | 72
* COc1ccc(N(C)c2ccc3nc(N)nc(N)c3n2)cc1OC | 70
* CN(c1ccccc1)c1ccc2nc(N)nc(N)c2n1 | 65
* COc1cc(N(C)c2ccc3nc(N)nc(N)c3n2)cc(OC)c1OC | 67
* COc1ccc(N(C)c2ccc3nc(N)nc(N)c3n2)cc1 | 67
* CN(c1ccc2ccccc2c1)c1ccc2nc(N)nc(N)c2n1 | 65

----------
# targetDesc: Bifunctional dihydrofolate reductase-thymidylate synthase (Toxoplasma gondii, UniProt Q07422)
# Sequence (Q07422 whole entry): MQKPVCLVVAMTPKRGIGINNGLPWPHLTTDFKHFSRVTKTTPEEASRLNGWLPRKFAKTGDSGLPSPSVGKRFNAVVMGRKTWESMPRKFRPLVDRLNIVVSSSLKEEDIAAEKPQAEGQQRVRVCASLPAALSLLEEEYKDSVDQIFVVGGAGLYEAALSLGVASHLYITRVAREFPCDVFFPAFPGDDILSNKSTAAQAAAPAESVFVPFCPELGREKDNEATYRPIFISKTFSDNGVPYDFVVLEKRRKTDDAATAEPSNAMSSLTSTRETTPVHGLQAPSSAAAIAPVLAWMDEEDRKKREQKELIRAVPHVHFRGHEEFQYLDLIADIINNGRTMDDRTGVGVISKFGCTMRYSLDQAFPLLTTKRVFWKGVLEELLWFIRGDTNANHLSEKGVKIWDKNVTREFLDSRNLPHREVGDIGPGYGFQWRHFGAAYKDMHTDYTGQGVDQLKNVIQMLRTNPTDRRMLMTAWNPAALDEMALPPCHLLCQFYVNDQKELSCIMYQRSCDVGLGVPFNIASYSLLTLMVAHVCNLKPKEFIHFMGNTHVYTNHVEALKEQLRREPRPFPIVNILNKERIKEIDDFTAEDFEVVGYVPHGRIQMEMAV
Readings of IC50 for the listed molecules
valueKind: IC50 (µM)

• COc1cc(Nc2ccc3nc(N)nc(N)c3n2)cc(OC)c1OC = 2.4
• COc1ccc(Sc2ccc3nc(N)nc(N)c3n2)cc1OC = 0.019
• COc1ccc(S(=O)(=O)c2ccc3nc(N)nc(N)c3n2)cc1 = 1
• COc1ccc(Nc2ccc3nc(N)nc(N)c3n2)cc1 = 2.8
• COc1ccccc1Nc1ccc2nc(N)nc(N)c2n1 = 0.46
• COc1cc(CNc2ccc3nc(N)nc(N)c3n2)cc(OC)c1OC = 0.49
• Nc1nc(N)c2nc(Nc3ccc(Cl)cc3)ccc2n1 = 0.83
• Nc1nc(N)c2nc(Nc3ccc4ccccc4c3)ccc2n1 = 1.1
• COc1ccc(Sc2ccc3nc(N)nc(N)c3n2)cc1 = 0.045
• COc1ccc(S(=O)(=O)c2ccc3nc(N)nc(N)c3n2)cc1OC = 0.94
• COc1ccccc1Sc1ccc2nc(N)nc(N)c2n1 = 0.058
• Nc1nc(N)c2nc(Nc3ccccc3)ccc2n1 = 0.3
